Please go through the items and note down their inhibition.
assay: growth inhibition of non-replicating M. tuberculosis (AID 488890); details: Mycobacterium tuberculosis non-replicating, at 25 µM, stronger effect = higher value;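 also: plate controls were DMSO cells for no effect and high antibiotic wells for full effect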
Among all 320,000 compounds or so, about 1,300 (0.41%) were called active. Another 3% or so got no clear call; they are omitted. Only a sample is shown. Results with a measured potency or affinity are listed apart.
Return type: number; implicit unit %.

Fill in the blank: the reported inhibition of CCOc1cc(-c2sc(Nc3ccc(CC)cc3)n[n+]2-c2ccccc2)ccc1OC is ____.
63.8

Repeat for the following molecule: CC(C)(C)OC(=O)[C@H](Cc1ccccc1)NC(=O)c1nc[nH]c1C(=O)N1CCNCC1
9.16

Quick one: Cc1ccc(S(=O)(=O)NCC(=O)NCC(=O)N(C)Cc2ccc3ccccc3c2)cc1C
31.9

Next molecule: COc1ccc(C)cc1Nc1n[n+](-c2ccccc2)c(-c2ccc(SC)cc2)s1
76.9

Now consider COc1ccc(/C(C)=N/NC(=O)c2ccncc2)cc1 .
67.2

Next entry: COc1ccc2oc(=O)c(/C(N)=N/NC(=O)c3ccncc3)cc2c1
61.4

Lookup C/C(=N\NC(=O)c1ccncc1)c1cc2ccccc2o1
69.3

Next: Cc1ccc(N(C)S(=O)(=O)c2cccc(C(=O)NNC(=O)c3ccncc3)c2)cc1
38.7

Field entry: COC(=O)C1=C2SC(C)C(=O)N2C(N)=C(C#N)C1c1ccc(OC)c(OC)c1 (stereo unspecified)
5.18

Same question for C/C(=N/NC(=O)c1ccncc1)c1cc2ccc(O)cc2oc1=O please.
78.4

And CCOC(=O)C1CCCN(Cc2ccccc2Cl)C1 (stereo unspecified) ?
21.6

====

assay: growth inhibition of non-replicating M. tuberculosis (AID 488890); conditions: Mycobacterium tuberculosis non-replicating, at 25 µM, stronger effect = higher value;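 also: plate controls were DMSO cells for no effect and high antibiotic wells for full effect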
Hit rate of the full screen: of about 320,000 compounds, about 1,300 (0.41%) were called active. Roughly 3% stayed inconclusive and do not appear here. Not all results are given here. Potency and affinity values are given separately.
Measured Property: inhibition (%)
Lab book: enter the figure in %, no units written.

What does the data say about its inhibition? Entry: Fc1ccc(-c2ccc(CNCc3ccccn3)o2)cc1
74.8

Lookup COc1cccc(NC(=O)C2C3C=CC(O3)C2C(=O)NCc2cccnc2)c1 (stereo unspecified)
7.86

Continue with COc1ccc(S(=O)(=O)n2oc(=O)cc2-c2ccccc2)cc1OC
-6.84

Also, CC(=O)Nc1cccc(-c2nc3ccccc3o2)c1 please.
8.44

Can you handle Cc1nnc2sc(SCC(=O)Nc3ccc(Br)cc3)nn2c1=O next?
-4.78

Moving on to the next compound: COC(=O)c1ccccc1OC(=O)c1cc2ccccc2oc1=O
17.4

Moving on to CNC(=O)C1CCC(=O)N1Cc1ccccc1Cl (stereo unspecified)
-5.58

Same again, this time with Cc1ccc(S(=O)(=O)NC(=O)c2ccccc2F)cc1
-3.32

Now give it for CCCC(=O)Nc1ccc(C2C(=O)c3ccccc3C2=O)cc1 too.
-4.62

Repeat for the following compound: O=C(Cn1nc(Cc2cccnc2)c2ccccc2c1=O)N1CCN(c2ccccn2)CC1
2.03

What do you have for CC(C)N1CCN(Cc2nc3ccccc3s2)CC1CCO (stereo unspecified) ?
8.77

Let us now turn to O=C(NCc1ccccn1)Nc1ccc(Br)cc1
-10.5

Entry to check: CC1CCc2c(C(=O)NCCCN3CCOCC3)csc2C1 (stereo unspecified)
-0.86

Now consider CCOC(=O)c1c(C)[nH]c(C(=O)OCC(=O)NCc2ccc(C)cc2)c1C and answer again.
-10.5

Consider next the compound Cc1nc2c(-c3ccc(F)cc3)c(C)nn2c(N2CCOCC2)c1C in the same way.
40.1

Then this compound: Cc1cc2ncn(/N=C/c3ccc4c(c3)OCO4)c2cc1C
64.7

Next compound up: Cn1cccc1/C=N/NC(=O)c1cc(-c2cccs2)nc2ccccc12
-12.1

What about this compound? CCOC(=O)N1CCC(c2[nH][nH]c(=O)c2C)CC1
-7.47

And then CN(CC(=O)NCc1ccccc1Cl)S(=O)(=O)c1ccc2c(c1)n(C)c(=O)c(=O)n2C , what is it?
-4.13

Consider next the compound O=C(O)C1=NN(c2ccccc2)C(=O)CC1 in the same way.
1.61

What do you get for O=C(Nc1ccc(N2CCN(C(=O)c3ccco3)CC2)cc1)c1cccs1 ?
38.8

Please give the result for CC(C)c1ccc(C(C(=O)NC2CCCC2)N(C(=O)CNC(=O)c2ccco2)c2cccnc2)cc1 (stereo unspecified) too.
-5.98

How about this compound: CC(=O)/C=C\c1ccccc1OC(=O)c1cc2ccccc2oc1=O
18

Repeat for the following compound: CC(=O)Nc1ccc(-c2nc3ccccc3c(=O)o2)cc1
68.8

Next: CC(=O)c1ccc(N2CCN(S(=O)(=O)c3cccc4nonc34)CC2)cc1
10.4

Now the compound CN(C)c1ccc(C(=O)Nc2ccc(O)c3c(=O)cc(-c4ccccc4Cl)oc23)cc1
7.25

Let us now turn to O=C(/C=C/c1ccc(Cl)cc1)Nc1ccccc1N1CCOCC1
-7.86

Next up: Cc1cc(C(=O)CN2C(=O)C(=O)N(Cc3ccco3)C2=O)c(C)n1CCc1ccccc1
54.3

Cool, now CCCCCn1c(=O)c(C(=O)Nc2cccc(C)n2)c(O)c2ccccc21
-21.5

Further, for CCOC(=O)c1c(NC(=O)Nc2ccc(F)cc2)sc2c1CCN(C)C2 ?
0.96

Entry to check: CC(=O)Nc1sc(C)c(C)c1C(=O)OCC(=O)Nc1ccccc1
6.17

Now give it for O=C(NS(=O)(=O)Nc1ccccc1)C1=C(N2CCCC2)COC1=O too.
12.7

Same thing, different compound: O=C(COC(=O)CNS(=O)(=O)c1ccc(Br)cc1Cl)NC1CC1
-8.59

Likewise for CCCC(=O)Nc1cccc(-c2nc3cc(C)c(C)cc3o2)c1 ?
-4.03

Record: CC(C)C(=O)Nc1cccc(-c2nc3ccccc3o2)c1
9.28

// next record Cc1ccc(/C=N/n2c(C)nc3ccccc3c2=O)s1
18.6

Proceed to Cc1cc(C(=O)COc2ccccc2C(N)=O)c(C)n1CC1CCCO1 (stereo unspecified)
-26.6

Consider next the compound COc1ccc(-n2cnc3cc(C(=O)N4CCOCC4)ccc32)cc1 in the same way.
-8.02

Field entry: CCOc1ccc(C(NC(=O)CC)c2c(O)ccc3ccccc23)cc1 (stereo unspecified)
22.7

Moving on to the next compound: Cc1ccc(/C=C/C(=O)O)cc1S(=O)(=O)NCCCO
-0.14

Also, O=C(Nc1ccc2nc(-c3ccccc3)oc2c1)c1ccco1 please.
-0.45

Another: O=C(NCCCn1ccnc1)c1ccc(Cl)c(S(=O)(=O)N2CCOCC2)c1
2.9

Same question for CCCCCn1c(=O)c(C(=O)Nc2ccccc2C)c(O)c2ccccc21 please.
-22.9

And what about the compound O=C(COC(=O)c1ccc(Cl)c(S(=O)(=O)N2CCOCC2)c1)NCc1ccco1 ?
-2.49

What about Cc1ccc(C)c(S(=O)(=O)N2CCN(C(=O)CCC(=O)NCc3ccc(Cl)cc3)CC2)c1 ?
6.7

Now the same for Cc1sc(NC(=O)C2=COCCO2)nc1-c1ccc(Cl)cc1
3.57
